z-score values by entry
measurement target: Homeobox protein Hox-A13 (Mus musculus) (UniProt Q62424)
Sequence (Q62424 whole entry, looked up): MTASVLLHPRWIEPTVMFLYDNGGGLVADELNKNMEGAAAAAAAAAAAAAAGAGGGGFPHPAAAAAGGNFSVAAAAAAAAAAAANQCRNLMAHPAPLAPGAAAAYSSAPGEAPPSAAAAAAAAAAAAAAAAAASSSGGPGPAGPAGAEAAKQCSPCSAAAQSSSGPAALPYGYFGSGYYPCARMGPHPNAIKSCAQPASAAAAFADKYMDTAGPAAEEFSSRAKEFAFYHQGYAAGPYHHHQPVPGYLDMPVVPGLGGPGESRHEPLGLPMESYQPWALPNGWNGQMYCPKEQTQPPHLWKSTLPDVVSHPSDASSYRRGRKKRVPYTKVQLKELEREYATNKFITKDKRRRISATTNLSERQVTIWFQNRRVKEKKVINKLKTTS
protocol notes: inhibitors of HoxA13-DNA binding, primary screen, biochemical, fluorescence polarization, labeled oligonucleotide (AID 1185)
measurement context: 15 min, higher = more signal, called active from +8 up or from −8 down
reported metric: z-score

molecule: CCN1C(=O)[C@H]2[C@H]3[C@H](O)[C@H](O)CC(=NOCC=C(C)CCC=C(C)C)[C@@H]3CC[C@H]2C1=O
measurement target: Homeobox protein Hox-A13 (Mus musculus) (UniProt Q62424)
reported metric: z-score
obs value: -3.73
--
molecule: C[C@H]1CC[C@@H](C(=O)O)N[C@@H]1c1ccc(C#Cc2ccccc2)cc1
measurement target: Homeobox protein Hox-A13 (Mus musculus) (UniProt Q62424)
reported metric: z-score
obs value: -2.16
--
molecule: CO[C@@H]1[C@H](O)CO[C@H]1C=Cc1ccccc1
measurement target: Homeobox protein Hox-A13 (Mus musculus) (UniProt Q62424)
reported metric: z-score
obs value: -3.28
--
molecule: CC(C)[C@@H](OCc1ccccc1)[C@H](C)C=NO[C@H](C)c1cn([C@@H]2COC[C@H]2O)nn1
measurement target: Homeobox protein Hox-A13 (Mus musculus) (UniProt Q62424)
reported metric: z-score
obs value: -0.967
--
molecule: CC(C)=CCCC(C)=CCON=C1[C@H]2CCn3c(=O)n(-c4ccccc4)c(=O)n3[C@H]2[C@H](O)[C@@H]2O[C@H]12
measurement target: Homeobox protein Hox-A13 (Mus musculus) (UniProt Q62424)
reported metric: z-score
obs value: -4.57
--
molecule: CCOC(=O)NN=C1C[C@@H](O)[C@@H](O)[C@@H]2[C@@H]3C(=O)N(C[C@@H]4CCCO4)C(=O)[C@@H]3CC[C@H]12
measurement target: Homeobox protein Hox-A13 (Mus musculus) (UniProt Q62424)
reported metric: z-score
obs value: 0.0129
--
molecule: CO[C@@H](C(C)C)[C@@H](C)C1OC(=O)CC1O (stereo partly specified)
measurement target: Homeobox protein Hox-A13 (Mus musculus) (UniProt Q62424)
reported metric: z-score
obs value: 0.186
--
molecule: COc1ccc(OC[C@@H]2CC3[C@@H](c4ccc(Br)cc4)[C@H](C)CC[C@H]3C(=O)O2)cc1 (stereo partly specified)
measurement target: Homeobox protein Hox-A13 (Mus musculus) (UniProt Q62424)
reported metric: z-score
obs value: 0.109
--
molecule: O=C1[C@H]2[C@H]3[C@H](O)[C@H](O)CC(=NO[C@@H]4O[C@H](CO)[C@@H](O)[C@H](O)[C@H]4O)[C@H]3CC[C@H]2C(=O)N1C[C@@H]1CCCO1
measurement target: Homeobox protein Hox-A13 (Mus musculus) (UniProt Q62424)
reported metric: z-score
obs value: 0.594
--
molecule: CCOC(=O)CCN1C(=O)[C@H]2[C@H]3[C@H](O)[C@H](O)CC(=NNC(=O)OCc4ccccc4)[C@H]3CC[C@H]2C1=O
measurement target: Homeobox protein Hox-A13 (Mus musculus) (UniProt Q62424)
reported metric: z-score
obs value: -3.59
--
molecule: CCOC(=O)[C@H](CC(C)C)NC(=O)CCC1CC(OC(=O)NCc2ccc3c(c2)OCO3)CC2(CCCC(COC(=O)NCc3ccccc3)O2)O1 (stereo partly specified)
measurement target: Homeobox protein Hox-A13 (Mus musculus) (UniProt Q62424)
reported metric: z-score
obs value: -6.86
--
molecule: COc1cccc([C@H]2Oc3ccc(OC)cc3C(=NOCC[C@@H]3C=C[C@H](OC(C)=O)[C@@H](COC(C)=O)O3)[C@@H]2O)c1
measurement target: Homeobox protein Hox-A13 (Mus musculus) (UniProt Q62424)
reported metric: z-score
obs value: -5.39
--
molecule: COC(=O)[C@H](C)NC(=O)CCC1CC(OC(=O)NCc2ccc3c(c2)OCO3)CC2(CCCC(COC(=O)NCCC(C)C)O2)O1 (stereo partly specified)
measurement target: Homeobox protein Hox-A13 (Mus musculus) (UniProt Q62424)
reported metric: z-score
obs value: -6.3
--
molecule: COC(=O)CC=C[C@@H](C)[C@@H](C=NOC[C@@H](O)COCc1ccco1)NS(=O)(=O)c1ccc(C)cc1
measurement target: Homeobox protein Hox-A13 (Mus musculus) (UniProt Q62424)
reported metric: z-score
obs value: -3.79
--
molecule: CC(CCN1CCCc2nc(C)c(C)cc21)=NO[C@H](C)c1cn([C@@H]2COC[C@H]2O)nn1
measurement target: Homeobox protein Hox-A13 (Mus musculus) (UniProt Q62424)
reported metric: z-score
obs value: -6.65
--
molecule: C[C@H]1C=CCC(=O)OC[C@H](C)C(=O)N2CCC[C@H]2C(=O)OC1
measurement target: Homeobox protein Hox-A13 (Mus musculus) (UniProt Q62424)
reported metric: z-score
obs value: -0.266
